Listing of entries alongside the reported viability.
- assay_name: HUVEC growth inhibition – cell-based, human, primary screen (AID 575);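 further: 100% = median of untreated cell wells with 0.1% DMSO on each plate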
- condition_details: HUVEC proliferation, CellTiter-Glo luminescence, 72 h; at 10 µM; stronger effect = lower value
Activity calls are given as the source filed them.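 How the source made its calls: active means viability at or below 30% in both replicate assays; inconclusive means viability at or below 30% in just one of the two assays; inactive means the rest.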

O=C(C1CCN(c2nnc(-n3cccc3)s2)CC1)N1CCOCC1 | 86.2% (inactive)
O=C(OCCN(CCOC(=O)c1ccncc1)S(=O)(=O)c1cccs1)c1ccncc1 | 99.2% (inactive)
CCn1cc(C(=O)NCC2CCCO2)c(=O)c2cc(S(=O)(=O)N(C)C3CCCCC3)ccc21 (stereo not given) | 69.5% (inactive)
Cc1ccc(NC(=O)CN(c2ccc3c(c2)OCO3)S(=O)(=O)c2c(C)n[nH]c2C)cc1 | 85.1% (inactive)
CC(=O)NC(CCS(C)(=O)=O)C(=O)Nc1cccc(C)c1C (stereo not given) | 86.8% (inactive)
COc1ccc(C2CC(c3ccc(C)cc3)Nc3ncnn32)cc1 (stereo not given) | 105% (inactive)

Would you kindly share the measured viability for Oc1ccc(-c2n[nH]c(=S)n2Cc2ccccc2)cc1 ? 112% (inactive)

Would you kindly share the measured viability for O=C(C1CCC(CNc2c(N3CCCCC3)c(=O)c2=O)CC1)N1CCc2ccccc2C1 (stereo not given) ? 107% (inactive)

Would you kindly share the measured viability for COC(=O)c1ccc(NC(=O)C2C3CCC(C3)C2C(=O)O)cc1 (stereo not given) ? 113% (inactive)

Would you kindly share the measured viability for CCOn1c(=O)c(=O)n(OCc2ccccc2)c2ccccc21 ? 78.5% (inactive)

====

- test_target: Receptor tyrosine-protein kinase erbB-2 (Homo sapiens)
- assay_name: Her2 expression decrease, cell viability multiplex – SKBR3 breast tumor cells, AlphaScreen, ATP viability, primary screen (AID 461);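 further: lower value means less Her2 protein in the cells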
- condition_details: 18-24 h, at 10 µM, stronger effect = lower value
Listing of entries alongside the reported Her2 level.
Numbers only here, please. The scale is %.

A selection of reference data follows.
COc1cccc(-c2nnc(NC(C)=O)o2)c1 | 99.5
CCOCCCNC(=O)C(c1ccccc1)N(Cc1ccc2c(c1)OCO2)C(=O)CNC(C)=O (stereo not drawn) | 108

Consider the additional compound presented here.
Would you kindly share the measured Her2 level for COc1ccc(OC)c(C2CC(=O)NC(SC)=C2C#N)c1 (stereo not drawn) ? 94

====

- assay_name: reduced viability of SK-BR-3 breast cancer cells – cell-based, 24 h, human, pilot screen (AID 572);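 further: compound exposure lasted between 18 and 24 h rather than exactly 24 h; 100% = carrier-treated control wells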
- condition_details: SK-BR-3 viability, CellTiter-Glo luminescence, at 10 µM, stronger effect = lower value
Listing of entries alongside the reported viability.
Numbers only here, please. The scale is %.

COc1cc2c(cc1OC)C(C)N(C(=O)Cn1ncc3c1-c1ccccc1OC3)CC2 (stereo not given) | 90.5
COc1ccc(CNc2oc(-c3ccccc3)nc2C#N)cc1 | 88.5
Cc1onc(-c2ccccc2Cl)c1C(=O)Nc1cnn(Cc2ccccc2)c1 | 88.5
Cc1cc(C)n2nc(SCc3nc4ccccc4[nH]3)nc2n1 | 87.5
Cc1ccc(C)c(N2CCN(CCCNC(=O)Cn3cc4c(n3)CCC(C)C4)CC2)c1 (stereo not given) | 90.5

Would you kindly share the measured viability for O=C(Nc1nnc(-c2ccc(Cl)cc2)o1)C1CCCCC1 ? 87.5

Would you kindly share the measured viability for CC(=O)c1ccc(NC(=O)C2CCN(S(=O)(=O)c3cccc4cccnc34)CC2)cc1 ? 97.5

====

- assay_name: S. cerevisiae growth inhibition in permissive medium (OD615), pilot counter-assay for S. cerevisiae lifespan shortening project, permissive growth control (AID 705)
- condition_details: OD615, 24 h, at 10 µM, stronger effect = higher value
Listing of entries alongside the reported growth inhibition.
Numbers only here, please. The scale is %.

A selection of reference data follows.
CCN1CCN(C(=O)C2CCN(Cc3nc(-c4ccc(Cl)cc4)oc3C)CC2)CC1 | -10.7
CC(=O)n1cc(-c2ccncc2)c2ccccc21 | -5.77
CCOC(=O)N1CCC(Nc2nc3ccccc3n3cnnc23)CC1 | 0.55
CCOc1ccc(NC(=O)CSc2nnc(COc3c(C)cccc3C)o2)cc1 | -9.38

Consider the additional compound presented here.
Would you kindly share the measured growth inhibition for COc1ccccc1-c1nnc(SCC(=O)NC2CCCCC2)o1 ? 1.35

====

Listing of entries alongside the reported inhibition.
- assay_name: RAM pathway blockade in budding yeast – dse1pr::URA3 reporter, 5-FOA selection, pilot screen (AID 869);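 further: 0% = DMSO wells with no growth and 100% = 10 µM 1-NA-PP1 with full growth; RAM network block rescues cells from 5-FOA so hits raise OD615 growth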
- condition_details: S. cerevisiae dse1pr::URA3 5-FOA growth, OD615, 2 d; at 10 µM; stronger effect = higher value; strain carries analog-sensitive mutant Cbk1 kinase
Numbers only here, please. The scale is %.

A selection of reference data follows.
O=C(O)CC(NC(=O)OCc1ccccc1)c1ccccc1 (centres undefined) | 1.17
COc1ccc(-c2nc(CSCC(=O)N3CCc4ccccc4C3)c(C)o2)cc1OC | -0.395
COc1cc(C2C(C#N)=C(C)NC3=C2C(=O)CC(C)(C)C3)ccc1OCCO (centres undefined) | 1.43

Consider the additional molecule presented here.
Would you kindly share the measured inhibition for Cc1ccc(S(=O)(=O)N2CCOCC2)cc1C(=O)Nc1nc(-c2cccnc2)cs1 ? 1.93

====

- assay_name: viability of HCT116 without oncogenic beta-catenin – human colon tumor cells, pilot screen (AID 823);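 further: 0% = wells killed by 20 µM Hyamine and 100% = untreated DMSO cell wells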
- condition_details: HCT116 beta-catenin knockout viability, CellTiter-Glo, 60 h; at 10 µM; stronger effect = lower value
Inconclusive results are not listed.
Listing of entries alongside the reported viability.
Numbers only here, please. The scale is %.

A selection of reference data follows.
Cc1nnc(NC(=O)CSc2nnc(Cc3cccn3C)n2-c2cccc(C)c2C)s1 | 100
CC1CCN(Cc2nc3c(c(=O)n(C)c(=O)n3C)n2Cc2cccc3ccccc23)CC1 | 87
CCOc1cccc(NC(=O)c2ccc(S(=O)(=O)N(C)C)cc2)c1 | 98.6

Consider the additional compound presented here.
Would you kindly share the measured viability for CCN(CC)C(=O)COc1ccc2oc(C)c(C(=O)OC(C)C)c2c1 ? 84.2

====

- assay_name: doxorubicin toxicity protection in MRP-1 cells – H69AR cells, CellTiter-Glo, duplicate, MRP-1 activator project, pilot screen (AID 807);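 further: compound pretreatment 18-22 h then 72 h combined with doxorubicin; 0% = doxorubicin alone and 100% = vehicle without doxorubicin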
- condition_details: H69AR viability with doxorubicin, CellTiter-Glo luminescence; at 10 µM; stronger effect = higher value
Listing of entries alongside the reported viability increase.
Numbers only here, please. The scale is %.

A selection of reference data follows.
CC(C)(NC(=O)N1CCCC1)c1cccc(C(C)(C)NC(=O)N2CCCC2)c1 | -0.99
CC(C)CNc1oc(-c2ccc(F)cc2)nc1C#N | 1.69
CCOc1ccc(N(CC(=O)NCc2cccs2)S(=O)(=O)c2c(C)noc2C)cc1 | -2.25
O=P(O)(CN1CCCCCC1)CN1CCCCCC1 | 1.45
Cc1cc(NS(=O)(=O)c2ccc(NC(=O)COc3ccccc3C(C)C)cc2)no1 | -1.38

Would you kindly share the measured viability increase for CCOCC(=O)Nc1nc2c(s1)C(=O)CC(C)(C)C2 ? -2.68

Would you kindly share the measured viability increase for Cc1ccc2oc(=O)c3cnn(CC(=O)Nc4ccccc4N4CCN(C)CC4)c3c2c1 ? -6.16

Would you kindly share the measured viability increase for O=C(Nc1ccccc1-c1nc2ccccc2s1)c1ccco1 ? -5.19

Would you kindly share the measured viability increase for CN(C(=O)c1ccccc1C(=O)c1ccccc1)C1CCS(=O)(=O)C1 (stereo unspecified) ? -1.54

Would you kindly share the measured viability increase for COCCNC(=O)CN1C(=O)CSc2ncccc21 ? -0.21

====

- test_target: Receptor tyrosine-protein kinase erbB-2 (Homo sapiens) (UniProt P04626)
- Sequence (P04626 whole entry, looked up): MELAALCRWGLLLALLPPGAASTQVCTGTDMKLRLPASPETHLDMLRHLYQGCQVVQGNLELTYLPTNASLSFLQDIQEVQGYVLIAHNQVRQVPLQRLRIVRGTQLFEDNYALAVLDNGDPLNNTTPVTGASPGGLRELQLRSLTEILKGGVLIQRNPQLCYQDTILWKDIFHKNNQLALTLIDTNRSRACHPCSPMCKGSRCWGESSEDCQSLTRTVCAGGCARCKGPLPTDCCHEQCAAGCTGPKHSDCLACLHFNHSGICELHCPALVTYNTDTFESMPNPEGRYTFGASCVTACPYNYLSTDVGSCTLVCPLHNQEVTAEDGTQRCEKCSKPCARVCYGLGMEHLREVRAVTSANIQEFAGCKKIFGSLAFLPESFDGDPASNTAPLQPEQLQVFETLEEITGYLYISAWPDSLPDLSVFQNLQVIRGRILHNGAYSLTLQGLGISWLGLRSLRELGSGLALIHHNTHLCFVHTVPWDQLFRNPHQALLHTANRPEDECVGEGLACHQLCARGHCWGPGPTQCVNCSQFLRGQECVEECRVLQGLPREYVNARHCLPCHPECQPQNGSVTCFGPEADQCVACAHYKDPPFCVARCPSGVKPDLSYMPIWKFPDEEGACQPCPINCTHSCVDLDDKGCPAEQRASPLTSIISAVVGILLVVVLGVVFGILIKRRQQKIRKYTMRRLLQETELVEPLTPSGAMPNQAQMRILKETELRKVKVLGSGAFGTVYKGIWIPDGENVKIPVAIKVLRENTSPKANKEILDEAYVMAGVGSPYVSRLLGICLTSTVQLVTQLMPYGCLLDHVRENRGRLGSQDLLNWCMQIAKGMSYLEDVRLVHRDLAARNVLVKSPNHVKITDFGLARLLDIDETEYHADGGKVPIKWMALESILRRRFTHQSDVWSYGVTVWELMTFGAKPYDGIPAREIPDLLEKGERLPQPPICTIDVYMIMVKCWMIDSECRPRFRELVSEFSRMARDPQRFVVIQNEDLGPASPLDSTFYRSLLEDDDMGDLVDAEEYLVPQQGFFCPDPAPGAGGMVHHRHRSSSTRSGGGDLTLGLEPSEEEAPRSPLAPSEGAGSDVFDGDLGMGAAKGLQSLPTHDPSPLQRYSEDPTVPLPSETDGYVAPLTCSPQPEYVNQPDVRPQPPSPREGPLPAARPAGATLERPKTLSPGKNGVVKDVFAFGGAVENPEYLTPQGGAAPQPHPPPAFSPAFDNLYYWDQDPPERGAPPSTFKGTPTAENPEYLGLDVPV
- assay_name: Her2 expression decrease, cell viability multiplex – SKBR3 breast tumor cells, AlphaScreen, ATP viability, primary screen (AID 461);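 further: lower value means less Her2 protein in the cells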
- condition_details: 18-24 h, at 10 µM, stronger effect = lower value
Listing of entries alongside the reported Her2 level.
Numbers only here, please. The scale is %.

A selection of reference data follows.
Cc1cc(C)nc(SCc2csc(N)n2)n1 | 85
O=C(c1ccc2c(c1)OCCO2)N1CCCCC1 | 97
CCOC(=O)c1ccc(N=c2sc(C(=O)OC)cc(=O)n2Cc2ccco2)cc1 | -1.5
Cn1c(C(=O)NCCCN2CCN(c3ccc(F)cc3)CC2)cc2c(=O)n(C)c3ccccc3c21 | 90
CC1(C)CC(=O)C=C(Nc2ccc(OCC(F)(F)C(F)F)cc2)C1 | 104
Cn1nnnc1SCC(=O)N1CCN(c2ccccc2)CC1 | 122
CCOC(=O)C1CCN(C(=O)CN(c2ccc(Cl)c(C(F)(F)F)c2)S(C)(=O)=O)CC1 | 100
CCCN1CCN(CCCNC(=O)Cn2ncc3c4ccccc4n(C)c3c2=O)CC1 | 120

Consider the additional molecule presented here.
Would you kindly share the measured Her2 level for COc1ccc(-c2nc(CCNC(=O)c3ccco3)cs2)cc1OC ? 102

====

Listing of entries alongside the reported viability.
- assay_name: viability of PTEN-null HCT116 cells – cell-based, HCT116 clonal line, CellTiter-Glo, pilot screen (AID 824);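 further: 0% = 20 µM Hyamine control and 100% = vehicle cell control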
- condition_details: HCT116 PTEN-deleted viability, 60 h, at 10 µM, stronger effect = lower value
Results filed as inconclusive are left out.
Numbers only here, please. The scale is %.

CCCOC(=O)c1ccc(NC(=O)c2ccoc2C)cc1 | 78
C/C=C/Cn1c(SCCCc2ccccc2)nc2c1c(=O)[nH]c(=O)n2C | 52.6
CCOC(=O)N1CCC(N2C(=O)c3ccccc3C2Nc2ccccc2C)CC1 (stereo not given) | 82.5
COc1ccccc1CNC(=O)COC(=O)c1ccc(NC(N)=O)cc1 | 97.9
CS(=O)(=O)Nc1ccccc1C(=O)O | 97.6
COc1ccc(C2CC(c3ccc(Cl)cc3Cl)Nc3nc(N)nn32)cc1 (stereo not given) | 73.3

Would you kindly share the measured viability for CCn1c(=O)c2cc(C(=O)NCc3cccs3)sc2c2ccccc21 ? 95.9

Would you kindly share the measured viability for CCOc1ccc(C2CC(c3ccc(CC)cc3)n3nc(N)nc3N2)cc1 (stereo not given) ? 83.5

Would you kindly share the measured viability for O=C(CCc1nc2ccccc2[nH]1)Nc1ccc2c(c1)OCCO2 ? 94.8

Would you kindly share the measured viability for Cc1ccc(-n2ncc3c(=O)n(CC(=O)NCc4ccco4)cnc32)cc1C ? 56.4
